Measured EC90 by item
Biological target: Nonstructural protein 5A (Hepatitis C virus) (UniProt Q5L478)
Sequence (whole entry): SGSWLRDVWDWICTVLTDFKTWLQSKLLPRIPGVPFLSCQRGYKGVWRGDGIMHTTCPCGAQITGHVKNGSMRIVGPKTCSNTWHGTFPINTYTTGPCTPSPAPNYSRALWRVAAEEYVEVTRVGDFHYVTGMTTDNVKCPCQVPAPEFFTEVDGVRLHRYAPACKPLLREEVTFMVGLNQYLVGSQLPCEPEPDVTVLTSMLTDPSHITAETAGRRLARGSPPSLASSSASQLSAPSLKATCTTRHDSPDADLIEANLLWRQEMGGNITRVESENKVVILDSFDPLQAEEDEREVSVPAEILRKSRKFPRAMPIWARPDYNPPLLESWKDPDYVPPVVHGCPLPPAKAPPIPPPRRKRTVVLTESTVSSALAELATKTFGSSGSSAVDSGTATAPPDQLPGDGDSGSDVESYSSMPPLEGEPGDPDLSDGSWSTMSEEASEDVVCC
Test: Inhibition of NS5A in HCV genotype 1b infected in HuH7 replicon cells assessed as decrease in viral replication after 3 days by RT-PCR method
Type: cell-based
Settings: Hepatitis C virus subtype 1b
experimentalReadout: EC90 (pM)

molecule: COC(=O)N[C@H](C(=O)N1CCC[C@H]1c1ncc(-c2cc(F)c3c(c2)O[C@@H](c2ccc4c(c2)OCCC4)n2c-3cc3cc(-c4cnc([C@@H]5CCCN5C(=O)[C@@H](NC(=O)OC)C5CCOCC5)[nH]4)ccc32)[nH]1)C(C)C
experimentalReadout: EC90
unitDescriptor: pM
val: 6
--
molecule: COC(=O)N[C@H](C(=O)N1CCC[C@H]1c1ncc(-c2cc(F)c3c(c2)O[C@@H](c2ccc(C4CC4)s2)n2c-3cc3cc(-c4cnc([C@@H]5CCCN5C(=O)[C@@H](NC(=O)OC)C5C[C@@H](C)O[C@@H](C)C5)[nH]4)ccc32)[nH]1)C(C)C (stereo partly specified)
experimentalReadout: EC90
unitDescriptor: pM
val: 4
--
molecule: CCCc1ccc([C@@H]2Oc3cc(-c4cnc([C@@H]5CCCN5C(=O)[C@@H](NC(=O)OC)C(C)C)[nH]4)cc(F)c3-c3cc4cc(-c5cnc([C@@H]6CCCN6C(=O)[C@@H](NC(=O)OC)C6CCOCC6)[nH]5)ccc4n32)s1
experimentalReadout: EC90
unitDescriptor: pM
val: 6
--
molecule: COC(=O)N[C@H](C(=O)N1CCC[C@H]1c1ncc(-c2cc(F)c3c(c2)O[C@@H](c2cnc(C(C)C)s2)n2c-3cc3cc(-c4cnc([C@@H]5CCCN5C(=O)[C@@H](NC(=O)OC)[C@@H]5CCOC(C)(C)C5)[nH]4)ccc32)[nH]1)C(C)C
experimentalReadout: EC90
unitDescriptor: pM
val: 6
--
molecule: COC(=O)N[C@H](C(=O)N1CCC[C@H]1c1ncc(-c2cc(F)c3c(c2)O[C@@H](c2ccc(C4CC4)s2)n2c-3cc3cc(-c4cnc([C@@H]5CCCN5C(=O)[C@@H](NC(=O)OC)[C@@H]5CCOC(C)(C)C5)[nH]4)ccc32)[nH]1)C(C)C
experimentalReadout: EC90
unitDescriptor: pM
val: 4.4
--
molecule: COC(=O)N[C@H](C(=O)N1CCC[C@H]1c1ncc(-c2cc(F)c3c(c2)O[C@@H](c2ccc(C4CC4)s2)n2c-3cc3cc(-c4cnc([C@@H]5CCCN5C(=O)[C@@H](NC(=O)OC)[C@H]5CCOC(C)(C)C5)[nH]4)ccc32)[nH]1)C(C)C
experimentalReadout: EC90
unitDescriptor: pM
val: 7
